Assay: Cytotoxicity (TC50) of the compounds tested for anti-HIV-1 activity
Assay type: cell-based, human
Details: human, CEM-SS cells
MEASUREMENT NAME: CC50 (µM)
Return type: number; implicit unit µM.

Challenge: Look up CC50 of Cc1cn([C@H]2C[C@H](N=[N+]=[N-])[C@@H](CO)O2)c(=O)[nH]c1=O [AZT, 3′-azido-3′-deoxythymidine, reference compound] and report it.
Response given: 3.7

---

Experiment: Oral administration of phospholipid-AZT conjugate in rodents (distribution, half-life)
Design: species or system rodents (mice)
Conditions: mouse, in vivo; in rodents; units given within the value; read-out: half-life of AZT alone
MEASUREMENT NAME: half-life

Challenge: Look up half-life of Cc1cn([C@H]2C[C@H](N=[N+]=[N-])[C@@H](CO)O2)c(=O)[nH]c1=O [AZT, 3′-azido-3′-deoxythymidine, reference compound] and report it.
Response given: 30 to 60 min

---

Tested on: AZT-resistant clinical isolates of HIV-1
Test: microbe, parasite or virus in culture
Format: cell-based
Settings: Human immunodeficiency virus 1, read-out: EC50 Pre-AZT H112-2, pre-AZT isolate, patient code H112-2; mean of 2 to 4 independent tests
MEASUREMENT NAME: EC50 (nM)
Return type: number; implicit unit nM.

Challenge: Report the value of EC50 obtained on AZT-resistant clinical isolates of HIV-1 for Cc1cn([C@H]2C[C@H](N=[N+]=[N-])[C@@H](CO)O2)c(=O)[nH]c1=O [AZT, 3′-azido-3′-deoxythymidine, reference compound] .
Response given: 2

---

Listing: pEC50 of selected compounds
Tested on: AZT-resistant clinical isolates of HIV-1
Assay: microbe, parasite or virus in culture
Format: cell-based
Conditions: post-AZT isolate, patient code G-691; mean of 2 to 4 independent tests; read-out: EC50 Post-AZT G-691
Note on units: pEC50 is unitless, being -log10 of a concentration expressed in mol/L.

Challenge: Look up pEC50 of CCCCCCCCCCCCSCC(COP(=O)([O-])OCC[N+](C)(C)C)OCCCCCCCCCCOC(=O)CC(=O)OC[C@H]1O[C@@H](n2cc(C)c(=O)[nH]c2=O)C[C@@H]1N=[N+]=[N-] (stereo partly shown) and report it.
Response given: 7.22

Challenge: Look up pEC50 of CCCCCCCCCCCCSCC(COP(=O)([O-])OCC[N+](C)(C)C)OCCCCCCCCO (stereo not shown) and report it.
Response given: 6.22

Challenge: Look up pEC50 of CCCCCCCCCCCCSCC(COP(=O)([O-])OCC[N+](C)(C)C)OCCCCCCCCCCCCOC(=O)CC(=O)OC[C@H]1O[C@@H](n2cc(C)c(=O)[nH]c2=O)C[C@@H]1N=[N+]=[N-] (stereo partly shown) and report it.
Response given: 7.22

---

Listing: Fold-Increase (G-762 to G-691) of selected molecules
Test system: AZT-resistant clinical isolates of HIV-1
Assay: microbe, parasite or virus in culture
Type: cell-based
Details: post-AZT G-691 versus pre-AZT G-762
Answer as a number with no unit attached.

Guide cases for Fold-Increase (G-762 to G-691), answers given:
{"columns": ["MOLECULE", "MEASUREMENT NAME", "OBSERVED"],
 "data": [
  ["Cc1cn([C@H]2C[C@H](N=[N+]=[N-])[C@@H](CO)O2)c(=O)[nH]c1=O [AZT, 3′-azido-3′-deoxythymidine, reference compound]", "Fold-Increase (G-762 to G-691)", 165],
  ["CCCCCCCCCCCCSCC(COP(=O)([O-])OCC[N+](C)(C)C)OCCCCCCCCCCCCO (stereo not shown)", "Fold-Increase (G-762 to G-691)", 0],
  ["CCCCCCCCCCCCSCC(COP(=O)([O-])OCC[N+](C)(C)C)OCCCCCCCCO (stereo not shown)", "Fold-Increase (G-762 to G-691)", 0]
]}

Here is the next item to consider.
Challenge: Look up Fold-Increase (G-762 to G-691) of CCCCCCCCCCCCSCC(COC(=O)CC(=O)OC[C@H]1O[C@@H](n2cc(C)c(=O)[nH]c2=O)C[C@@H]1N=[N+]=[N-])OC (stereo partly shown) and report it.
Response given: 13.5
